Source: PubChem BioAssay (NCI)

Test: NCI Yeast Anticancer Drug Screen. Data for the mlh1 rad18 strain (AID 175)
Settings: S. cerevisiae mlh1 rad18 strain growth inhibition; at 5.0 µM (retest, dose inferred, filed as 0.5)
Procedure: Growth inhibition of yeast strains with defined genetic alterations is measured as a screen for potential anti-cancer activity. Selected strains with alterations in DNA damage repair or cell cycle control were exposed to compounds and growth inhibition was measured relative to vehicle treated controls. The strain used in this assay is mlh1 rad18
Compounds without any hit were thinned out: in the full panel of roughly 79,000, 15% have a hit. The source made the active and inactive calls. Cut-off read from the data, not from the text of the source: active = growth inhibition above about 70%; inactive = the rest.
Response enum: True = active, False = inactive

Some entries whose results are on file:
INSERT INTO results (compound, label_value) VALUES
  ('CN(C)CCNC(=Cc1ccc2ccccc2[n+]1C)NCCN(C)C', 'False'),
  ('O=C(NOC(=O)c1ccc([N+](=O)[O-])cc1)c1ccc(Cl)cc1', 'False'),
  ('CCC[CH2][Sn]([CH2]CCC)([CH2]CCC)/[C](=C/[Si](C)(C)c1ccccc1)c1ccc2c(c1)OCO2', 'False'),
  ('Cc1cccc2c1C1c3c(C)cccc3C(CC(=O)O)CC1CC2 (stereo unspecified)', 'False'),
  ('C=COC(=O)N[C@H]1CCc2cc(OC)c(OC)c(OC)c2-c2ccc(SC)c(=O)cc21', 'False'),
  ('c1ccc([P+](CCN2Cc3ccccc3C2)(c2ccccc2)c2ccccc2)cc1', 'True'),
  ('CCOC(=O)/C(=C\c1cccc(C)c1)C(C)=O', 'False'),
  ('CCC(=O)C1=C(O)c2cc(OC)ccc2CC1C(=O)OC (stereo unspecified)', 'False');

Input line: Outcome logged for "Cc1ccnc2c(O)cccc12" in this assay:
Output line: True

Input line: For this compound, state the assay outcome: "Oc1ccc(C2(c3ccc(O)cc3)CCCC2)cc1"
Output line: False

Input line: What classification did "CCCCS(=O)(=O)Nc1ccc(Nc2c3ccccc3nc3ccccc23)c(OC)c1" end up with in this test?
Output line: True

* * *

Assay: NCI Yeast Anticancer Drug Screen. Data for the mlh1 strain (AID 171);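 note: 0% = growth of vehicle-treated control cultures of the same strain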
Settings: S. cerevisiae mlh1 strain growth inhibition; at 1.2 µM; stronger effect = higher value
The panel holds about 79,000 compounds, 15% with a hit somewhere; the sample as a whole holds those more often. Residues, ends and D or L forms follow the SMILES beside them. *: point of attachment. Fmoc = O=C(OCC1c2ccccc2-c2ccccc21)*; Boc = CC(C)(C)OC(=O)*
EXPERIMENTAL_ENDPOINT: growth inhibition (%)
The reply should be a number in %, with the unit left off.

Would you please look over these solved cases?
INSERT INTO assay_data (compound, experimental_endpoint, unit_text, observed) VALUES
  ('CC(C)(CN1CCCCC1)C(=O)/C=C/c1c(Cl)cccc1Cl', 'growth inhibition', '%', 1),
  ('Nc1cccc(-c2cc[cH-]c2)c1.[Fe+2].c1cc[cH-]c1', 'growth inhibition', '%', -3),
  ('O=C(/N=N/C(=O)Oc1ccccc1)Oc1ccccc1', 'growth inhibition', '%', -70),
  ('CCOC(=O)C(Cc1c2ccccc2cc2ccccc12)(NC(C)=O)C(=O)OCC', 'growth inhibition', '%', 0),
  ('COc1ccccc1NC(=O)c1ccc(Cl)cc1', 'growth inhibition', '%', 0);

Input line: Bench note: what growth inhibition did "CCOP(=O)(OCC)/C(C#N)=C\c1cccc2ccccc12" show?
Output line: 11

Input line: Item "O=C(Oc1ccc([N+](=O)[O-])cc1)c1ccc([N+](=O)[O-])cc1" has what recorded growth inhibition?
Output line: 3

Input line: Quick one: growth inhibition for CC(C)(C)OC(=O)NCCCCC(NC(=O)C(Cc1c[nH]c2ccccc12)NC(=O)OCC1c2ccccc2-c2ccccc21)C(=O)O (configuration not stated) (Fmoc-Trp-Lys(Boc)-OH; configuration not given here) ?
Output line: -1

Input line: # query: growth inhibition of entry COc1cccc(C(NC2=NCCC=N2)c2cc3c(cc2O)OCO3)c1O (configuration not stated)
Output line: -4

Input line: Given O=C(NCCCCN1CC2CCCC2C1)C(C1CCCCC1)C1CCCCC1 (configuration not stated) , state its recorded growth inhibition.
Output line: 7
